// provenance: patent US12642270B2

- assay overview: Log P by HPLC on reversed phase columns (EEC directive 79/831 Annex V.A8)
- Format: physicochemical
- details: method marked [a]
quantity: LogP

Example entries and their recorded answers appear below.
CCOC(=O)CNC(=O)c1sc(F)c(Br)c1C ... 2.67^[a]
CCOC(=O)C(Cc1ccccc1)NC(=O)c1sc(F)c(Br)c1Br (centres unmarked) ... 4.67^[a]
CCOC(=O)C(NC(=O)c1sc(Cl)c(C#N)c1Cl)C(C)C (centres unmarked) ... 3.81^[a]
CCOC(=O)C(C#N)NC(=O)c1sc(Cl)c(Cl)c1C (centres unmarked) ... 3.23^[a]
COC(=O)[C@H](CCSC)NC(=O)c1sc(C#N)c(Cl)c1C ... 2.97^[a]

# map each compound to its LogP
1. CCOC(=O)C(CCSC)NC(=O)c1sc(C#N)c(Cl)c1C (centres unmarked)
2. COC(=O)CNC(=O)c1sc(Cl)c(C#N)c1Cl
3. COC(=O)C(NC(=O)c1cc(C#N)c(Cl)s1)C1CC1 (centres unmarked)
4. COC(=O)C1(NC(=O)c2sc(C#N)c(Br)c2C)CCC1
5. COC(=O)C1(NC(=O)c2sc(C#N)c(Cl)c2Br)CCC1
6. CCOC(=O)C(CCSC)NC(=O)c1sc(Cl)c(C#N)c1Cl (centres unmarked)

A.
3.28^[a]
2.16^[a]
2.47^[a]
2.71^[a]
2.96^[a]
3.52^[a]

* * *

- assay overview: Log P by HPLC on reversed phase columns (EEC directive 79/831 Annex V.A8)
- Assay type: physicochemical
- details: method [a]: LC-UV, acidic range, 0.1% formic acid in water and acetonitrile
quantity: LogP

# map each molecule to its LogP
1. O=C(NC1CCOC1=O)c1sc(Cl)c(Cl)c1C(F)F (centres unmarked) [I.0747]
2. O=C(O)c1cc(Cl)c(F)s1 [II.064]

A.
1. 2.40^[a]
2. 2.16^[a]

# map each molecule to its LogP
1. O=C(O)c1sc(Cl)c(Br)c1Br [II.011]
2. Cc1c(C(=O)O)sc(C#N)c1Cl [II.016]
3. O=C(O)c1cc(Cl)c(Br)s1 [II.040]
4. Cc1c(C(=O)O)sc(Cl)c1C#N [II.008]

A.
2.57^[a]
1.95^[a]
2.23^[a]
1.94^[a]

# map each molecule to its LogP
1. CCOC(=O)c1sc(Br)c(C#N)c1Cl [II.091]
2. O=C1CC(NC(=O)c2cc(Br)c(Cl)s2)CCN1 (centres unmarked) [I.0223]
3. COC(=O)c1sc(Br)c(Cl)c1F [II.020]
4. Cc1c(C(=O)O)sc(F)c1Br [II.102]
5. CCOC(=O)c1cc(Cl)c(C#N)s1 [II.072]

A.
["3.44^[a]", "1.80^[a]", "3.47^[a]", "2.53^[a]", "3.10^[a]"]

* * *

For each entry below, report its LogP value.
- assay overview: Log P by HPLC on reversed phase columns (EEC directive 79/831 Annex V.A8)
- Format: physicochemical
- details: method [a]

CNC(=S)SC[C@H](NC(=O)c1sc(Br)c(Br)c1F)C(=O)OC [1.0534] ... 3.24^[a]
CCOC(=O)C(NC(=O)c1sc(Cl)c(Br)c1C#N)C(C)C (centres unmarked) [1.0609] ... 3.81^[a]

# map each compound to its LogP
1. COC(=O)C1(NC(=O)c2cc(Br)c(Cl)s2)CC1 [1.0164]
2. CCCOC(=O)C1(NC(=O)c2sc(Br)c(Br)c2F)CCC1 [1.0928]
3. CCOC(=O)C(NC(=O)c1sc(Br)c(Br)c1F)c1ccccc1 (centres unmarked) [1.0175]
4. CCOC(=O)C(CCSC)NC(=O)c1sc(Cl)c(Cl)c1C#N (centres unmarked) [1.0814]
5. CCOC(=O)CC[C@H](NC(=O)c1sc(Cl)c(Cl)c1Br)C(=O)OCC [1.0562]

A.
2.51^[a]
4.30^[a]
4.47^[a]
3.46^[a]
4.25^[a]

* * *

- assay overview: Log P by HPLC on reversed phase columns (EEC directive 79/831 Annex V.A8)
- Assay type: physicochemical
- details: method [a]: LC-UV, acidic range, 0.1% formic acid in water and acetonitrile
quantity: LogP

N#Cc1sc(C(=O)NC2CCOC2=O)c(Cl)c1Cl (centres unmarked) [I.0819] ... 2.05^[a]
N#Cc1cc(C(=O)O)sc1Cl [II.041] ... 1.44^[a]
O=C(N[C@H]1CNC1=O)c1sc(Cl)c(Cl)c1Br [I.0808] ... 2.03^[a]
COC(=O)c1sc(Cl)c(Br)c1F [II.025] ... 3.47^[a]
CCC(C)C(NC(=O)c1sc(Br)c(Br)c1F)C(=O)O (centres unmarked) [I.0235] ... 3.40^[a]
Cc1c(C(=O)NC2CCOC2=O)sc(C#N)c1Br (centres unmarked) [I.1034] ... 1.92^[a]
CCOC(=O)c1sc(C)c(Cl)c1Cl [II.063] ... 4.03^[a]
N#CC1(NC(=O)c2sc(Br)c(Br)c2F)CCC(C2CCCCC2)CC1 (centres unmarked) [I.1012] ... 6.13^[a]
COC(=O)c1cc(F)c(Br)s1 [II.049] ... 3.04^[a]
O=C(NC1CCOC1=O)c1sc(Br)c(Br)c1C(F)F (centres unmarked) [I.1066] ... 2.46^[a]

# map each molecule to its LogP
1. O=C(O)c1sc(F)c(Br)c1Br [II.094]
2. Cc1c(C(=O)O)sc(Br)c1Cl [II.015]
3. CCOC(=O)c1sc(F)c(Br)c1Cl [II.066]
4. N#CC1(NC(=O)c2sc(Br)c(Br)c2Cl)CCC(C2CCCCC2)CC1 (centres unmarked) [I.0869]
5. COC(=O)c1sc(Br)c(C(F)F)c1Br [II.075]
6. O=C(O)c1cc(Br)c(Cl)s1 [II.043]

A.
1: 2.26^[a]; 2: 2.75^[a]; 3: 4.02^[a]; 4: 6.46^[a]; 5: 3.54^[a]; 6: 2.28^[a]

Q. Please give the documented LogP of COC(=O)C(Cc1ccccc1)NC(=O)C(CC(=O)O)NC(=O)c1sc(Cl)c(Cl)c1Br (centres unmarked) [I.0487]
A. 3.23^[a]

* * *

- assay overview: Log P by HPLC on reversed phase columns (EEC directive 79/831 Annex V.A8)
- Format: physicochemical
- details: method [a]; compounds of formula (I), Table 1.1
quantity: LogP

# map each molecule to its LogP
1. CCOC(=O)C(NC(=O)c1cc(Br)c(C#N)s1)C(C)C (centres unmarked)
2. CSCCC(NC(=O)c1cc(Br)c(Cl)s1)C(=O)O (racemic)
3. COC(=O)C(CC(F)F)NC(=O)c1cc(F)c(Br)s1 (racemic)
4. Cc1c(C(=O)NC(C#N)Cc2ccccc2)sc(Cl)c1Br (centres unmarked)
5. CCOC(=O)C(CO)NC(=O)c1sc(Br)c(Br)c1F (racemic)
6. CCOC(=O)C1(NC(=O)c2sc(Br)c(Br)c2I)CCC1

A.
["3.27^[a]", "2.58^[a]", "2.68^[a]", "3.99^[a]", "2.51^[a]", "4.08^[a]"]

* * *

- assay overview: Log P by HPLC on reversed phase columns (EEC directive 79/831 Annex V.A8)
- Type: physicochemical
- details: method [a]
For each entry below, report its LogP value.

CCOC(=O)C(C)NC(=O)c1sc(Br)c(Cl)c1C (stereo not drawn) ... 3.35^[a]
N#Cc1c(C(=O)NCC(N)=O)sc(Cl)c1Cl ... 1.47^[a]

# map each compound to its LogP
1. O=C(O)CNC(=S)c1sc(Cl)c(Cl)c1Br
2. CCOC(=O)C(CCSC)NC(=O)c1sc(C#N)c(Br)c1C (stereo not drawn)
3. CCOC(=O)[C@H](CO)NC(=O)c1sc(C#N)c(Br)c1C
4. CCOC(=O)[C@H](NC(=O)c1sc(Br)c(Br)c1F)C(C)C
5. NC(=O)CNC(=O)c1sc(Br)c(Br)c1F
6. O=C(NC1(C(=O)OC2CCC2)CC1)c1sc(Cl)c(Br)c1Br

A.
1. 3.11^[a]
2. 3.34^[a]
3. 2.11^[a]
4. 4.47^[a]
5. 1.69^[a]
6. 4.20^[a]

Q. Please give the documented LogP of `COC(=O)C1(NC(=O)c2sc(Cl)c(Cl)c2Br)CCC1`
A. 3.67^[a]

* * *

For each entry below, report its LogP value.
- assay overview: Log P by HPLC on reversed phase columns (EEC directive 79/831 Annex V.A8)
- Assay type: physicochemical
- details: LogP method [a]; compounds of formula (I), Table 1.1

Example entries and their recorded answers appear below.
COC(=O)C(CC(=O)OC(C)(C)C)NC(=O)c1sc(Br)c(Br)c1Cl (stereo not drawn) ... 4.55^[a]
O=C(NC1(C(=O)O)CC1)c1cc(Cl)c(Br)s1 ... 1.99^[a]

Now look at this entry.
Q. Please give the documented LogP of CCOC(=O)C(NC(=O)c1sc(Br)c(Br)c1F)C(C)C (stereo not drawn)
A. 2.63^[a]
